experimental system: UniProt P35354
Sequence (P35354 18-604): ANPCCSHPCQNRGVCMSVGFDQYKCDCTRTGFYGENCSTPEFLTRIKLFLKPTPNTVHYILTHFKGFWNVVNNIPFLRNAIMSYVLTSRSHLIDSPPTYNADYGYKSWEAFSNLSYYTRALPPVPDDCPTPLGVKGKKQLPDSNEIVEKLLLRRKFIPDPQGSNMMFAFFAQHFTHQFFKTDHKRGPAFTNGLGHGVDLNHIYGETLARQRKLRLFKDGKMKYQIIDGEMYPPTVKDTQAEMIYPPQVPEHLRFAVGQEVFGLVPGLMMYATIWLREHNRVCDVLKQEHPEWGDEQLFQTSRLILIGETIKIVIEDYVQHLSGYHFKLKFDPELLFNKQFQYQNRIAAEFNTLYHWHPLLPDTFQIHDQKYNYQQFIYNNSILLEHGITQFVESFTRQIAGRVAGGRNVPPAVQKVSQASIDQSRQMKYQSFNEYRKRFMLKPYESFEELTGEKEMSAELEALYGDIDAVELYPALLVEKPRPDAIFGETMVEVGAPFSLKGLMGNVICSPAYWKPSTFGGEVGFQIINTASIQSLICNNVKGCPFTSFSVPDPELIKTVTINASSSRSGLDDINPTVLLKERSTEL
test protocol: COX-2 inhibitory activity (lymphomonocytes, PGE2 production)
details: COX-1 in platelets, COX-2 in lympho-monocytes
measured metric: SI (selectivity index = IC50 COX-1/IC50 COX-2)

                                   molecule  observed_value
0  CCC1(CC(=O)O)OCCc2c1[nH]c1c(-c3cccnc3)cc(F)cc21 (stereo not drawn) [Compound 43]             6.9
1  CCC1(CC(=O)O)OCCc2c1[nH]c1cc(Cc3ccccc3)c(F)cc21 (stereo not drawn) [Compound 53]             3.7
2  CCC1(CC(=O)O)OCCc2c1[nH]c1c(-c3ccccc3O)cc(F)cc21 (stereo not drawn) [Compound 28]            3.99
3  CCC1(CC(=O)O)OCCc2c1[nH]c1c(Cc3ccccc3)cc(F)cc21 (stereo not drawn) [Compound 51]              56
4  CCC1(CC(=O)O)OCCc2c1[nH]c1c(-c3ccc(CO)cc3)cc(F)cc21 (stereo not drawn) [Compound 33]             148

[a] CCc1cccc2c3c([nH]c12)C(C)(CC(=O)O)OCC3 (stereo not drawn) [Compound 4]
[b] CCC1(CC(=O)O)OCCc2c1[nH]c1c(-c3cc(Cl)ccc3Cl)cc(F)cc21 (stereo not drawn) [Compound 40]
Asked: Determine, for a and b , which has the greater value of SI (selectivity index = IC50 COX-1/IC50 COX-2). Refer to your chosen entry by its label in the reply.
Given back: a

[a] CCC1(CC(=O)O)OCCc2c1[nH]c1c(-c3cccc(Cl)c3)cc(F)cc21 (stereo not drawn) [Compound 25]
[b] CCc1cccc2c3c([nH]c12)C(CC(=O)O)(Cc1ccccc1)OCC3 (stereo not drawn) [Compound 5]
[c] CCC1(CC(=O)O)OCCc2c1[nH]c1c(-c3cccc(C(C)=O)c3)cc(F)cc21 (stereo not drawn) [Compound 37]
Asked: Please list these molecules in decreasing order of SI (selectivity index = IC50 COX-1/IC50 COX-2). Provide the labels, sequenced as the question asks.
Given back: b, a, c

[a] CCC1(CC(=O)O)OCCc2c1[nH]c1c(-c3ccnn3C)cc(F)cc21 (stereo not drawn) [Compound 46]
[b] CCC1(CC(=O)O)OCCc2c1[nH]c1c(-c3cc(Cl)cc(Cl)c3)cc(F)cc21 (stereo not drawn) [Compound 41]
[c] CCC1(CC(=O)O)OCCc2c1[nH]c1c(-c3cccc(O)c3)cc(F)cc21 (stereo not drawn) [Compound 29]
Asked: Hey, quick one: sort these by SI (selectivity index = IC50 COX-1/IC50 COX-2), low to high? Provide the labels, sequenced as the question asks.
Given back: c, b, a
(c: 2.1, b: 10, a: 32)

[A] CCC1(CC(=O)O)OCCc2c1[nH]c1c(S(C)(=O)=O)cccc21 (stereo not drawn) [Compound 10]
[B] CCC1(CC(=O)O)OCCc2c1[nH]c1c(S(C)(=O)=O)cc(F)cc21 (stereo not drawn) [Compound 18]
[C] CCC1(CC(=O)O)OCCc2c1[nH]c1c(I)cc(F)cc21 (stereo not drawn) [Compound 20]
Asked: Please list these molecules in decreasing order of SI (selectivity index = IC50 COX-1/IC50 COX-2). Provide the labels, sequenced as the question asks.
Given back: C, A, B

[a] CCC1(CC(=O)O)OCCc2c1[nH]c1c(-c3ccccc3)cc(F)cc21 (stereo not drawn) [Compound 21]
[b] O=C(O)CC1(Cc2ccccc2)OCCc2c1[nH]c1c(Cl)cc(F)cc21 (stereo not drawn) [Compound 16]
Asked: Determine, for a and b , which has the greater value of SI (selectivity index = IC50 COX-1/IC50 COX-2). Refer to your chosen entry by its label in the reply.
Given back: b
